Test system: HBV
Assay: qPCR test in the HBV in vitro test (HBV DNA in HepG2.2.15 cells)
Format: cell-based
Details: Hepatitis B virus, 192 h, HBV DNA in HepG2.2.15 culture medium, day 8, read-out: Half maximal inhibitory concentration (EC50) of HBV
The label condition met is reserved for EC50 strictly under 10 nM; condition not met covers values equal to or above it.

Just wondering, is EC50 of CC(C)(CCCCC(=O)O)NC(=O)C(=O)c1c(Cl)c(C(=O)Nc2cc(F)c(F)c(F)c2)c2n1CCC2 below 10 nM?
condition not met

Confirm or reject: EC50 of C[C@]1(NC(=O)C(=O)c2c(Cl)c(C(=O)Nc3ccc(F)c(F)c3)c3n2CCC3)CC[C@@H](C(=O)O)CC1 lies strictly below 10 nM
condition not met

Does the reported EC50 of N#CC1(NC(=O)C(=O)c2c(Cl)c(C(=O)Nc3cc(F)c(F)c(F)c3)c3n2CCC3)CCC(CC(=O)O)CC1 (stereo not shown) stay below 10 nM?
condition not met

API: query returns whether the compound falls strictly under 10 nM in EC50. Query: CC1(NC(=O)C(=O)c2cc(C(=O)Nc3ccc(F)c(F)c3)c3n2CCCC3)CCOCC1
condition not met

In the record for CC1(NC(=O)C(=O)c2c(Cl)c(C(=O)Nc3ccc(F)c(C#N)c3)c3n2CCC3)CCOCC1 , is EC50 less than 10 nM?
condition met

Strictly below 10 nM: is that where EC50 of COC(=O)C[C@H]1CC[C@](C)(NC(=O)C(=O)c2c(Cl)c(C(=O)Nc3cc(F)c(F)c(F)c3)c3n2CCC3)CC1 sits?
condition met

EC50 under 10 nM? Item: C[C@]1(NC(=O)C(=O)c2c(Cl)c(C(=O)Nc3ccc(F)c(F)c3)c3n2CCC3)CC[C@H](CC(=O)O)CC1
condition not met

---

Would you kindly list AUC for each of these molecules?
Experiment: Pharmacokinetic study in Balb/c mice by oral administration and intravenous injection
Format: in vivo
Conditions: mouse, plasma, 3 mg/kg; PO (3 mpk), Balb/c female mice; read-out: Area under the plasma concentration-time curve AUC
Don't forget the unit after the number, please.

Sample C[C@]1(NC(=O)C(=O)c2c(Cl)c(C(=O)Nc3ccc(F)c(F)c3)c3n2CCC3)CC[C@H](CC(=O)O)CC1 ; AUC observed: 5.02 µM·h

The reported AUC of the molecule C[C@]1(NC(=O)C(=O)c2c(Cl)c(C(=O)Nc3cc(F)c(F)c(F)c3)c3n2CCC3)CC[C@H](CC(=O)O)CC1 was 2.27 µM·h

---

Test: Metabolic stability in liver microsomes
Assay type: in vitro ADME
Conditions: mouse; CD-1 mice liver microsomes
Consider the following compounds; for each one, report its CLint scaled at 1 μM.

Briefly, CLint scaled at 1 μM measured for C[C@]1(NC(=O)C(=O)c2c(Cl)c(C(=O)Nc3cc(F)c(F)c(F)c3)c3n2CCC3)CC[C@H](CC(=O)O)CC1 [Compound 25] : < 38 mL/min/kg

Lab note: measured CLint scaled at 1 μM of C[C@]1(NC(=O)C(=O)c2c(Cl)c(C(=O)Nc3ccc(F)c(F)c3)c3n2CCC3)CC[C@@H](CC(=O)O)CC1 [Compound 17] was < 38 mL/min/kg

Please fill in: CLint scaled at 1 μM reported for C[C@]1(NC(=O)C(=O)c2c(Cl)c(C(=O)Nc3ccc(F)c(F)c3)c3n2CCC3)CC[C@H](CC(=O)O)CC1 [Compound 18] = < 38 mL/min/kg
